# METHOD_DESCRIPTION: protein stability index of a GFP-peptide fusion (GPS, HEK-293T) (PSI 1-6); higher = more stable;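 also: 24-mer peptide tiles fused after GFP, lentivirally expressed, FACS-sorted into six equal bins by GFP/DsRed ratio, decoded by Illumina sequencing, PSI is the read-weighted mean bin number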
# APPLIED_CONDITIONS: treatment: DMSO; c terminus: a fixed tail appended
What protein stability index was measured for each of the following?
One number for each entry.

RDWWNSTSFSNYYRTWNVVVHDWL [SOAT2]; 2.35
QILKDTKSITSAMNELQHDLDVVS [TPH1]; 3.82
VDNARIVLQIDNARLAADDFRVKY [KRT18]; 2.58

For the 3 sequences below, give their protein stability index values.
1. QKRLKSKLLDHDNVKYLKKILDEL [GDAP1]
2. AKLAADDFRTKYETELSLRQLVEA [KRT36]
3. GDNPYMYPEQSKGFHKAGSMLPPV [SPATS1]

Return:
1: 2.1; 2: 3.73; 3: 3.37

Okay, here is my list. What is protein stability index for each of these?
1. QILDSLSYMRNENVISELNIEDYF [FBXO39]
2. GHSQPDGAYSSASSFSRPLGYPYV [DLX1]
3. PATEEQEAASSSSTLVEVTLGEVP [MAGEA3]
4. RAVDWWALGILIFEMLSGFPPFFD [PRKX]

Return:
1. 2.32
2. 3.35
3. 5.52
4. 2.99

Values were extracted from the supplement of paper PMC10567573.
